Target: T1, CD19 (human, UniProt P15391)
T1 chain: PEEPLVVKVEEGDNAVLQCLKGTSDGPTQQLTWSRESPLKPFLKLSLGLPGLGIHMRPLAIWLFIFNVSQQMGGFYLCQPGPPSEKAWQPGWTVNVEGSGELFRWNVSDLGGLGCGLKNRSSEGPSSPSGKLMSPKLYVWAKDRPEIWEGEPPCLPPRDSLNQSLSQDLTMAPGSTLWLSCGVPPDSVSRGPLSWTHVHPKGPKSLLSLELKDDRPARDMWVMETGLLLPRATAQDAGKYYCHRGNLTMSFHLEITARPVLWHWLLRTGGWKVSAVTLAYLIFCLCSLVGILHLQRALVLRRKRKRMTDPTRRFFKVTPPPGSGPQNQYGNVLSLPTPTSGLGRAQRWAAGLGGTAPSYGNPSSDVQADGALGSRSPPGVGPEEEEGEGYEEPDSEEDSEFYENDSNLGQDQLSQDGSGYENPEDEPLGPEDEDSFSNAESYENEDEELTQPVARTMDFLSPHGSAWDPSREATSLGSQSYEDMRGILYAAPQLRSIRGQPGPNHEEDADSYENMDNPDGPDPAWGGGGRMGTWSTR
Test: ELISA
Consider the following binders and their measured EC50 readings.
MEASURED_PROPERTY: EC50 (nM)

1) DVD002 CD19 arm (antibody, V domains shown, DVD-Ig outer) VH: QVQLQQSGAELVRPGSSVKISCKASGYAFSSYWMNWVKQRPGQGLEWIGQIWPGDGDTNYNGKFKGKATLTADESSSTAYMQLSSLASEDSAVYFCARRETTTVGRYYYAMDYWGQGTSVTVSS VL: DILLTQTPASLAVSLGQRATISCKASQSVDYDGDSYLNWYQQIPGQPPKLLIYDASNLVSGIPPRFSGSGSGTDFTLNIHPVEKVDAATYHCQQSTEDPWTFGGGTKLEIKR; 0.07
2) DVD013 CD19 arm (antibody, V domains shown, DVD-Ig inner) VH: QVQLQQSGAELVRPGSSVKISCKASGYAFSSYWMNWVKQRPGQGLEWIGQIWPGDGDTNYNGKFKGKATLTADESSSTAYMQLSSLASEDSAVYFCARRETTTVGRYYYAMDYWGQGTSVTVSS VL: DILLTQTPASLAVSLGQRATISCKASQSVDYDGDSYLNWYQQIPGQPPKLLIYDASNLVSGIPPRFSGSGSGTDFTLNIHPVEKVDAATYHCQQSTEDPWTFGGGTKLEIKR; 7.29
3) DVD001 CD19 arm (antibody, V domains shown, DVD-Ig inner) VH: QVQLQQSGAELVRPGSSVKISCKASGYAFSSYWMNWVKQRPGQGLEWIGQIWPGDGDTNYNGKFKGKATLTADESSSTAYMQLSSLASEDSAVYFCARRETTTVGRYYYAMDYWGQGTSVTVSS VL: DILLTQTPASLAVSLGQRATISCKASQSVDYDGDSYLNWYQQIPGQPPKLLIYDASNLVSGIPPRFSGSGSGTDFTLNIHPVEKVDAATYHCQQSTEDPWTFGGGTKLEIKR; 12.9
